src = the Human Domainome abundance scans (Beltran et al. 2025)

B1: Serine/threonine-protein kinase A-Raf, residues 21 to 89; numbered along this chain, P10398 (parent)
chain: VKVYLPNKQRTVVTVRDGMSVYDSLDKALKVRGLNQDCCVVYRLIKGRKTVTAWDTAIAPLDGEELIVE

variants of: B1; assay: abundance fitness (aPCA) (normalised: wild type 0, dead -1); higher = more abundant; growth selection in yeast, the domain comes from the species named; conditions: Homo sapiens
REPORTED METRIC: abundance fitness
Answer with a number only.

Answered examples (8):
>  <MUTANT CODE>
V3R

>  <MEASURED RESULT>
-0.808

$$$$
>  <MUTANT CODE>
R10N

>  <MEASURED RESULT>
0.042

$$$$
>  <MUTANT CODE>
I45V

>  <MEASURED RESULT>
-0.067

$$$$
>  <MUTANT CODE>
S20Y

>  <MEASURED RESULT>
-0.623

$$$$
>  <MUTANT CODE>
Q36M

>  <MEASURED RESULT>
-0.18

$$$$
>  <MUTANT CODE>
V68A

>  <MEASURED RESULT>
-0.391

$$$$
>  <MUTANT CODE>
Y4G

>  <MEASURED RESULT>
-0.663

$$$$
>  <MUTANT CODE>
L44F

>  <MEASURED RESULT>
-0.197

$$$$

Return abundance fitness for the following variant: E65K
-0.122

Return abundance fitness for the following variant: C38P
-0.677

Return abundance fitness for the following variant: K30V
-0.713
